Parameter: IC50. Scope: all listed entries.
biological target: UniProt P36897; assay: Inhibition of human recombinant GST-tagged ALK5 expressed in Sf9 insect cells using casein as substrate incubated for 60 mins in presence of [33P]-ATP by scintillation counting method

structure.smiles.string	IC50 / nM
Cc1cccc(NCc2nc(-c3ccc4nsnc4c3)c(-c3cccc(C)n3)[nH]2)c1	13
Cc1cccc(-c2[nH]c(CNc3ccccc3)nc2-c2cc3cnccc3s2)n1	25
Cc1ccc(NCc2nc(-c3ccc4nsnc4c3)c(-c3cccc(C)n3)[nH]2)cc1	22
Cc1cccc(NCc2nc(-c3cc4cnccc4s3)c(-c3cccc(C)n3)[nH]2)c1	19

* * *

biological target: Mitogen-activated protein kinase 14 (Homo sapiens, UniProt Q16539); assay: Inhibition of human recombinant untagged p38alpha expressed in Escherichia coli using ATF2 as substrate incubated for 60 mins in presence of [33P]-ATP by scintillation counting method
Sequence (Q16539 whole entry): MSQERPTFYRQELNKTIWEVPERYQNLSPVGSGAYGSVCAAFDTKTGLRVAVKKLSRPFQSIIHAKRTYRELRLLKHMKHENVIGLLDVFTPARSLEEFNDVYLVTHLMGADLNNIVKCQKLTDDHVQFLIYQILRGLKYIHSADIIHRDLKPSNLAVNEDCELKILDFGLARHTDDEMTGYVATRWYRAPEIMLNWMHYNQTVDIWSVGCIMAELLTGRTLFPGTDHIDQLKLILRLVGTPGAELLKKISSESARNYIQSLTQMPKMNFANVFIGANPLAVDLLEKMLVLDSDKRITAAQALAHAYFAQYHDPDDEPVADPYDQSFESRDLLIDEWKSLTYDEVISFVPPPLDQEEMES
pIC50: −log10 of the molar value.
Label rule, in plain words: pIC50 of 6 and up is True, under 6 is False.

structure.smiles.string	group
Cc1cccc(-c2[nH]c(CNc3cccc(F)c3)nc2-c2ccc3nsnc3c2)n1	True
Cc1cccc(-c2[nH]c(CNc3ccccc3F)nc2-c2cc3cnccc3s2)n1	False
Cc1cccc(-c2[nH]c(CNc3ccccc3C)nc2-c2cc3cnccc3s2)n1	False
Cc1ccc(NCc2nc(-c3ccc4nsnc4c3)c(-c3cccc(C)n3)[nH]2)cc1	False
Cc1cccc(NCc2nc(-c3ccc4nsnc4c3)c(-c3cccc(C)n3)[nH]2)c1	True
Cc1ccc(NCc2nc(-c3cc4cnccc4s3)c(-c3cccc(C)n3)[nH]2)cc1	False
Cc1cccc(-c2[nH]c(CNc3ccccc3)nc2-c2cc3cnccc3s2)n1	False
Cc1cccc(NCc2nc(-c3cc4cnccc4s3)c(-c3cccc(C)n3)[nH]2)c1	False
Cc1cccc(-c2[nH]c(CNc3ccc(F)cc3)nc2-c2cc3cnccc3s2)n1	False

* * *

molecular target: TGF-beta receptor type-1 (Homo sapiens); assay: Inhibition of human recombinant GST-tagged ALK5 expressed in Sf9 insect cells using casein as substrate incubated for 60 mins in presence of [33P]-ATP by scintillation counting method
Sequence (P36897 whole entry): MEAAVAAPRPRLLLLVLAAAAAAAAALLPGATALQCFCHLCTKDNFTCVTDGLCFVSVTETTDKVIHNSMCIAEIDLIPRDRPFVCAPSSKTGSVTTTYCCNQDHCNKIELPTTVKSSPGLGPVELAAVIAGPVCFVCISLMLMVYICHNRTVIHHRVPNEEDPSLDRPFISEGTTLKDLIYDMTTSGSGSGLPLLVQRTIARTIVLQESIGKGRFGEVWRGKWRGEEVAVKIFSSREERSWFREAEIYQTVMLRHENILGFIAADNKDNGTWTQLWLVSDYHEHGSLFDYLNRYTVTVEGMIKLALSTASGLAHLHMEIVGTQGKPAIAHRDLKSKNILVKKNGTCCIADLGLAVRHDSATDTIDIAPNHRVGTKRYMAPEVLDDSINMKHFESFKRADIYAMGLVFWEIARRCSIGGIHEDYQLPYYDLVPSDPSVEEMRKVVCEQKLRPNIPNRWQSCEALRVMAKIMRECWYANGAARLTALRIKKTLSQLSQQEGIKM
pIC50: −log10 of the molar value.

structure.smiles.string	pIC50
Cc1cccc(-c2[nH]c(CNc3ccccc3F)nc2-c2ccc3nsnc3c2)n1	7.96
Cc1cccc(-c2[nH]c(CNc3cccc(F)c3)nc2-c2cc3cnccc3s2)n1	7.77
Cc1cccc(-c2[nH]c(CNc3ccccc3C)nc2-c2ccc3nsnc3c2)n1	7.68
Cc1cccc(-c2[nH]c(CNc3ccccc3)nc2-c2ccc3nsnc3c2)n1	7.85
Cc1cccc(-c2[nH]c(CNc3ccc(F)cc3)nc2-c2ccc3nsnc3c2)n1	8.00
Cc1cccc(-c2[nH]c(CNc3ccccc3C)nc2-c2cc3cnccc3s2)n1	7.85
Cc1cccc(-c2[nH]c(CNc3ccc(F)cc3)nc2-c2cc3cnccc3s2)n1	7.38
Cc1cccc(-c2[nH]c(CNc3ccccc3F)nc2-c2cc3cnccc3s2)n1	7.64
Cc1ccc(NCc2nc(-c3cc4cnccc4s3)c(-c3cccc(C)n3)[nH]2)cc1	7.37
Cc1cccc(-c2[nH]c(CNc3cccc(F)c3)nc2-c2ccc3nsnc3c2)n1	8.10

* * *

target: Mitogen-activated protein kinase 14 (Homo sapiens); experiment: Inhibition of human recombinant untagged p38alpha expressed in Escherichia coli using ATF2 as substrate incubated for 60 mins in presence of [33P]-ATP by scintillation counting method

structure.smiles.string	IC50
Cc1cccc(-c2[nH]c(CNc3ccc(F)cc3)nc2-c2ccc3nsnc3c2)n1	831 nM
Cc1cccc(-c2[nH]c(CNc3ccccc3C)nc2-c2ccc3nsnc3c2)n1	899 nM
Cc1cccc(-c2[nH]c(CNc3cccc(F)c3)nc2-c2cc3cnccc3s2)n1	1520 nM
Cc1cccc(-c2[nH]c(CNc3ccccc3)nc2-c2ccc3nsnc3c2)n1	763 nM
Cc1cccc(-c2[nH]c(CNc3ccccc3F)nc2-c2ccc3nsnc3c2)n1	1170 nM

Data credit: ChEMBL document CHEMBL4433262
